# assay_protocol: Lipophilicity, log P estimated from HPLC retention times
# Format: physicochemical
# stated_conditions: HPLC retention times compared with standards of known log P, pH 7.5

compound	chromatographic logP
CCC(C)N(C)C(=O)c1cc2ccccc2c(-c2ccccc2Cl)n1 (stereo not shown)	3.35

###

# system_under_test: TSPO (Rattus norvegicus, UniProt P16257)
# Sequence (P16257 whole entry): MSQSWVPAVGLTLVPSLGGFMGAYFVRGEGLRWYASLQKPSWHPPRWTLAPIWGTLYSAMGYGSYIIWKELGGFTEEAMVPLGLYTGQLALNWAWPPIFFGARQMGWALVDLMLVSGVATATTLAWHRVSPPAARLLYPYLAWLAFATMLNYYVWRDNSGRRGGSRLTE
# assay_protocol: In vitro binding assay, TSPO, [^3H]-PK11195
# Parameters: from tissue
# Experimental: […] (IC50) of CLINME for the TPSO and for the central benzodiazepine receptor (CBR) was determined as described previously. The IC50 values were converted to the inhibition constant, Ki, using Cheng-Prusoff equation.
pKi: −log10 of the molar value.
recorded_metric: pKi

input_smiles	recorded_metric	data_value
CCN(C)C(=O)Cc1c(-c2ccc(I)cc2)nc2ccc(Cl)cn12	pKi	8.80

###

# system_under_test: TSPO (Rattus norvegicus, UniProt P16257)
# assay_protocol: In vitro binding assay, TSPO, [^3H]-Ro 5-4864
# Parameters: from tissue
pKi: −log10 of the molar value.

input_smiles	pKi
CCN(C)C(=O)Cc1c(-c2ccc(I)cc2)nc2ccc(Cl)cn12	8.35
